Entries and their IC50
# Test system: A549
# assay: Cytotoxicity against human A549 cells by MTT assay
# Assay type: functional, cell-based
Answer in nM, number only, no unit symbol.

Example entries and their recorded answers appear below.
>  <compound>
CCOC(=O)Nc1ccc(S(=O)(=O)N2C(=O)N[C@@H](c3ccccc3)C2C)cc1C (stereo partly specified)

>  <result_type>
IC50

>  <recorded_number>
5000

$$$$
>  <compound>
CCc1cc(S(=O)(=O)N2C[C@H](c3ccccc3)NC2=O)ccc1NC(=O)NC1CCCCC1

>  <result_type>
IC50

>  <recorded_number>
500

$$$$
>  <compound>
CCOC(=O)Nc1ccc(S(=O)(=O)N2C[C@H](c3ccccc3)NC2=O)cc1CC

>  <result_type>
IC50

>  <recorded_number>
60

$$$$

(Q) Please indicate IC50 recorded for CCCOC(=O)Nc1ccc(S(=O)(=O)N2C[C@H](c3ccccc3)NC2=O)cc1CC
(A) 60

(Q) Please indicate IC50 recorded for CCOC(=O)Nc1ccc(S(=O)(=O)N2C[C@H](c3ccccc3)NC2=O)cc1Cl
(A) 20
